# pIC50 annotations
Target: Inosine-5'-monophosphate dehydrogenase 2 (Homo sapiens, UniProt P12268)
Assay: Inhibition of IMPDH2 using inosine 5'-monophosphate as substrate by spectrophotometry
pIC50: −log10 of the molar value.
test readout: pIC50

{"compound": "COc1c(C)c2c(c(O)c1CC(O)C(C)(O)C(O)CC(=O)O)C(=O)OC2 (configuration not stated)", "test readout": "pIC50", "assay value": 4.14}
{"compound": "COc1c(C)c2c(c(O)c1C/C=C(\\C)[C@@H](O)CC(=O)O)C(=O)OC2", "test readout": "pIC50", "assay value": 5.75}
